TESTED ON: NEK1 (Homo sapiens)
Sequence (Q96PY6 1-1258): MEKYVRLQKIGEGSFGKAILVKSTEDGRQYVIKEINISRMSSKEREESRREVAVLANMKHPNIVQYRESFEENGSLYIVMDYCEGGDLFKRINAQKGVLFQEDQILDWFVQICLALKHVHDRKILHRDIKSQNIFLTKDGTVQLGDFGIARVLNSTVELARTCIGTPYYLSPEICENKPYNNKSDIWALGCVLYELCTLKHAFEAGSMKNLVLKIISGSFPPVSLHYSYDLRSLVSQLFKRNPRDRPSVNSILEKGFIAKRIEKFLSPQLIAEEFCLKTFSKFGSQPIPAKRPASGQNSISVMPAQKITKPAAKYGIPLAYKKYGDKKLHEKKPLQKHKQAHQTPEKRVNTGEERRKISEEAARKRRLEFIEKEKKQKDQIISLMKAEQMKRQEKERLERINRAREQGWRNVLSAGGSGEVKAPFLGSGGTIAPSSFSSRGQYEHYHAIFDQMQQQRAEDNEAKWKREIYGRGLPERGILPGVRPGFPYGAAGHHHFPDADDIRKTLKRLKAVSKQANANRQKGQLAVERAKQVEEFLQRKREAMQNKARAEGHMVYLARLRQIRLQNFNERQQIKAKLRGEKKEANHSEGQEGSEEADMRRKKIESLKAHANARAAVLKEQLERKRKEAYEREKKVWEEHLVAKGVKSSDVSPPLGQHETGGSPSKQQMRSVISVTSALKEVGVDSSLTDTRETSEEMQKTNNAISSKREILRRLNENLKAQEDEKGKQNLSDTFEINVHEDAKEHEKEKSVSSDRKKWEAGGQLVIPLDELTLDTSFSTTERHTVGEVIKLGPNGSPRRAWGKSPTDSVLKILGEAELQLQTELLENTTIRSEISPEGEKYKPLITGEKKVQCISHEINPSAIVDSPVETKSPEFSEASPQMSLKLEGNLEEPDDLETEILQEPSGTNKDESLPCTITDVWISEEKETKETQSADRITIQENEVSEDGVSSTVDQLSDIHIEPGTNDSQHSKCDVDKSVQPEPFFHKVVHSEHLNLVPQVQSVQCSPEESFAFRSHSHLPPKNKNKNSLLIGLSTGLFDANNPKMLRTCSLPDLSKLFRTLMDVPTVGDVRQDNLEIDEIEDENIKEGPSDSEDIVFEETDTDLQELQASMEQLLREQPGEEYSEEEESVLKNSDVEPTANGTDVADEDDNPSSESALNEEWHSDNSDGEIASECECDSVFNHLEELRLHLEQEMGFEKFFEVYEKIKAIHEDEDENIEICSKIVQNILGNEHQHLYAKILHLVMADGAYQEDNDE
TEST SUMMARY: FRET-based coupled-enzyme protein kinase inhibition assay
Assay type: biochemical
ASSAY CONTEXT: compound at 10 µM, 1% DMSO
ENDPOINT: inhibition at 10 µM (%)

{"MOLECULE": "CN1CCN(CCNC(=O)OC[C@H]2O[C@@H](n3cnc4c(N)ncnc43)[C@H](O)[C@@H]2O)CC1", "TESTED ON": "NEK1 (Homo sapiens)", "RECORDED VALUE": 7}
{"MOLECULE": "CS(=O)(=O)N1CC2(CCN(C(=O)OC[C@H]3O[C@@H](n4cnc5c(N)ncnc54)[C@H](O)[C@@H]3O)CC2)c2ccccc21", "TESTED ON": "NEK1 (Homo sapiens)", "RECORDED VALUE": 0}
{"MOLECULE": "Nc1ncnc2c1ncn2[C@@H]1O[C@H](COC(=O)N2CCC[C@H]2CO)[C@@H](O)[C@H]1O", "TESTED ON": "NEK1 (Homo sapiens)", "RECORDED VALUE": -3}
{"MOLECULE": "Nc1ncnc2c1ncn2[C@@H]1O[C@H](COC(=O)N2CCN(C(=O)N3CCOCC3)CC2)[C@@H](O)[C@H]1O", "TESTED ON": "NEK1 (Homo sapiens)", "RECORDED VALUE": -7}

P: CN(C)CCNC(=O)OC[C@H]1O[C@@H](n2cnc3c(N)ncnc32)[C@H](O)[C@@H]1O
Q: Nc1ncnc2c1ncn2[C@@H]1O[C@H](COC(=O)NC[C@H](O)CO)[C@@H](O)[C@H]1O
Out of P and Q , name the one with the higher inhibition at 10 µM. Indicate your choice by writing its label. P

a: Nc1ncnc2c1ncn2[C@@H]1O[C@H](COC(=O)N2CCN(Cc3ccccc3)CC2CO)[C@@H](O)[C@H]1O (stereo partly drawn)
b: Nc1ncnc2c1ncn2[C@@H]1O[C@H](COC(=O)N2CCS(=O)(=O)CC2)[C@@H](O)[C@H]1O
Lowest inhibition at 10 µM? choose a or b Indicate your choice by writing its label. b
(b: -3%, a: 4%)
